The reported measurements were obtained from patent US20200147235A1.

Target: T1, Human CD98 ECD with C-terminal His-tag (human, UniProt P08195 105-529)
T1 construct: The entry includes the linker and the polyhistidine tag; also called huCD98 ECD
T1 sequence: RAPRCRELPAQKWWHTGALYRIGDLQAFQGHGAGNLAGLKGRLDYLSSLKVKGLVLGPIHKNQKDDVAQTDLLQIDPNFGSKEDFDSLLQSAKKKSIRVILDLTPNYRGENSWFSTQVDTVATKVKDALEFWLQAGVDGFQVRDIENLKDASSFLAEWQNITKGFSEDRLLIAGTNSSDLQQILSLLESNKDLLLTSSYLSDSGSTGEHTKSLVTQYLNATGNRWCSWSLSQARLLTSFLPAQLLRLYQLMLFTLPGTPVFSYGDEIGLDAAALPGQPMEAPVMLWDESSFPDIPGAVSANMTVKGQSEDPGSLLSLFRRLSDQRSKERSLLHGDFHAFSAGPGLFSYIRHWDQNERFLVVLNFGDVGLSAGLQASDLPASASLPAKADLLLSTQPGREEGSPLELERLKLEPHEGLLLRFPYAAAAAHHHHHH
Assay: SPR (Biacore), antibody captured on anti-Fc surface, CD98 ECD in solution
// reported kon for each item listed
Provide only the numeric value, understood in M⁻¹ s⁻¹.

Known results for binders:
| binder | measured.parameter | val |
| --- | --- | --- |
| huAb15v4 (antibody, V domains shown, Humanized, further engineered clone of chAb15, converted to IgG and expressed as a full-length antibody) VH: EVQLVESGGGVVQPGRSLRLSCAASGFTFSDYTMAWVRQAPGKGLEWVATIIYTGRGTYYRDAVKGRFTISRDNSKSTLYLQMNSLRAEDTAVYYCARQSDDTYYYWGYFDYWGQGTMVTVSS VL: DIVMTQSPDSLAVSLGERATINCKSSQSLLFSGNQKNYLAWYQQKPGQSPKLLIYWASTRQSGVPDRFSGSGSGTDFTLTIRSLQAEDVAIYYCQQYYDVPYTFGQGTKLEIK | kon | 35000 |
| huAb15v1 (antibody, V domains shown, Humanized, further engineered clone of chAb15, converted to IgG and expressed as a full-length antibody) VH: EVQLVESGGGVVQPGRSLRLSCAASGFTFSDYTMAWVRQAPGKGLEWVATIIYSGRGTYYRDAVKGRFTISRDNSKSTLYLQMNSLRAEDTAVYYCARQSDHTYYYWGYFDYWGQGTMVTVSS VL: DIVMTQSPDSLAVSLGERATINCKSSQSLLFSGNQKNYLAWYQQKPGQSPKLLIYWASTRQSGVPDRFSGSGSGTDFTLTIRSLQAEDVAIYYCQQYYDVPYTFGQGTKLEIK | kon | 53000 |

We next turn to a different binder, shown below.
Entry under test: huAb15v7 (antibody, V domains shown, Humanized, further engineered clone of chAb15, converted to IgG and expressed as a full-length antibody) VH: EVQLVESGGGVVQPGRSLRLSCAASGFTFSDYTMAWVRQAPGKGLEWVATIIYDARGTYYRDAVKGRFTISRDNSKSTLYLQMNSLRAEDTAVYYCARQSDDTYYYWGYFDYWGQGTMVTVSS VL: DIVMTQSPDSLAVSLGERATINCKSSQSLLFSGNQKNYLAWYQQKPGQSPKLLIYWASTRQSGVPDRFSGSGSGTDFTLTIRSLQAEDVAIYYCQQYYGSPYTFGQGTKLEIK . Its kon was 35000
